Origin of measurements: patent US20220144956A1

- study system: human TGFßRII (antigen of the Octet experiments) (human, UniProt P37173 23-166)
- Sequence (P37173 23-166): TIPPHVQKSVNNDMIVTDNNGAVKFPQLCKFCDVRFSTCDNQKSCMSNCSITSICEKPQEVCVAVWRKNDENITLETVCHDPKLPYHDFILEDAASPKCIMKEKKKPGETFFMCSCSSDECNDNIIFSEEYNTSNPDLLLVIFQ
- procedure details: BLI (Octet)
Reported Kd values for a set of binders
Give the value in pM but do not write pM after it.

As a guide, the following entries are already answered.
>  <binder>
H1 L1.6 XENP34569 (antibody, V domains shown) VH: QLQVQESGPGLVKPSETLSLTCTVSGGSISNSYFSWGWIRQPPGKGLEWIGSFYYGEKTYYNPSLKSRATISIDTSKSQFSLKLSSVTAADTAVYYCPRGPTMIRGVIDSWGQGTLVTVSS VL: EIVLTQSPATLSLSPGERATLSCGASQSVRSYLAWYQQKPGQAPRLLIYDASNRATGIPARFSGSGSGTDFTLTISSLEPEDFAVYYCQQRSNWPPTFGQGTKVEIK

>  <Kd / pM>
2240

$$$$
>  <binder>
H1.99 L1 XENP34555 (antibody, V domains shown) VH: QLQVQESGPGLVKPSETLSLTCTVSGGSISNSYFSWGWIRQPPGKGLEWIGSFYYGEKTYYNPSLKSRATISIDTSKSQFSLKLSSVTAADTAVYYCPRGPTMIRGSIDSWGQGTLVTVSS VL: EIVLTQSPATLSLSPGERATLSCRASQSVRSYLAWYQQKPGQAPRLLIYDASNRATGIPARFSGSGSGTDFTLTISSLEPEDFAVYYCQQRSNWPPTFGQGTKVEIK

>  <Kd / pM>
431

$$$$

**Query** Find the recorded Kd belonging to H1.107 L1 XENP34563 (antibody, V domains shown) VH: QLQVQESGPGLVKPSETLSLTCTVSGGSISNSYFSWGWIRQPPGKGLEWIGSFYYGEKTYYNPSLKSRATISIDTSKSQFSLKLSSVTAADTAVYYCPRGPTMIRGVIDSWGQGTTVTVSS VL: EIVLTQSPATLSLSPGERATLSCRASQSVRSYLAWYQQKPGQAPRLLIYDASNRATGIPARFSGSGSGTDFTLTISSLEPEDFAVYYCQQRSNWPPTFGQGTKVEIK and report it.
**Result** 109
